// Ka lookup, one value per entry
Biological target: T1, recombinant human IL-23R/Fc chimera (R&D Systems) (human, UniProt Q5VWK5 24-355)
T1 construct: Bought; also called rhIL23RFc
T1 sequence (looked up): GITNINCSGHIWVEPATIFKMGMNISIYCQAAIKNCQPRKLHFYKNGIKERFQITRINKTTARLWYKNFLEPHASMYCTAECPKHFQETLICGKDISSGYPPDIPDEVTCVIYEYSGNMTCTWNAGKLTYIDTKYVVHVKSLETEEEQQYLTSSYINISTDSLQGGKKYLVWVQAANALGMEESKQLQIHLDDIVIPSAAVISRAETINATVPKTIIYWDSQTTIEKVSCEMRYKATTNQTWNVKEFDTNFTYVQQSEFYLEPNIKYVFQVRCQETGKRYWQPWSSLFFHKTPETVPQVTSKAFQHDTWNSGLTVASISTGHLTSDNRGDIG
Experiment: SPR
Unit M⁻¹ implied. Number only.

Use the examples below as a reference point.
binder	Ka, M⁻¹
056-45.F7F ATRIMER complex (designed binder, Homotrimer of this chain (ATRIMER complex)., not shown: A possible extra N-terminal Ser from the ompA junction is left out) EPPTQKPKKIVNAKKDVVNTKMFEELKSRLDTLAQEVALLKEQQALQTVCLKGTKVHMKCFLAFTQTKTFHEASEDCISRGGTLSTPQTGSENDALYEYLRQSVGNEAEIWLGLNGSATTDTWVDMTGARIAYKNWETEITAQPDGGFGYFGENCAVLSGAANGKWFDKRCRDQLPYICQFGIV	7.92e+08
001-87.A5F ATRIMER complex (designed binder, Homotrimer of this chain (ATRIMER complex)., also called Atrimer A5F; not shown: A possible extra N-terminal Ser from the ompA junction is left out) EPPTQKPKKIVNAKKDVVNTKMFEELKSRLDTLAQEVALLKEQQALQTVCLKGTKVHMKCFLAFTQTKTFHEASEDCISRGGTLSTPQTGSENDALYEYLRQSVGNEAEIWLGLNGSVRSATWVDMTGARIAYKNWETEITAQPDGGFGYFGENCAVLSGAANGKWFDKRCRDQLPYICQFGIV	2.19e+08

Pending binder:
What value of measured Ka is listed for 101-51-1A8 ATRIMER complex (designed binder, Forms a homotrimer through the tetranectin coiled coil; one protomer is given., not shown: C-terminal tag: His/Myc (pANA4) or HA-StrepII (pANA10)) EPPTQKPKKIVNAKKDVVNTKMFEELKSRLDTLAQEVALLKEQQALQTVCLKGTKVHMKCFLAFTQTKTFHEASEDCISRGGTLSTPQTGSENDALYEYLRQSVGNEAEIWLGLNGSALTNTWVDMTGARIAYKNWERTPPWQPEGGFGYFGENCAVLSGAANGKWFDKRCRDQLPYICQFGIV ? 6.62e+08

Hey, just so you know, these numbers are from patent US20110086806A1.
